// provenance: a melting point compilation (Tetko et al.; mined from patent text by program, amines drawn as free bases though some values may be those of a salt)

In this section, each of the compounds is paired with its reported melting point.

CCOC(=O)c1nn(-c2ccc(Br)cc2)c(=O)c2c(N)scc12: 198 to 200 °C
Nc1ccccc1C(=O)NC1CCN(CCCOc2ccc3c4c(c(=O)oc3c2)CCC4)CC1: 269 to 270 °C
COc1ccc2c(c1)CCC1CCNC(=O)C(CCNC(C)C)=C21 (stereo not given): 147 to 149 °C
Cc1ccc(N2CSC(=NCC(F)(F)F)N(Cc3ccc(C(F)(F)F)cc3)C2=O)cc1: 62 to 63 °C
COc1ccc(N2CCN(c3cc4c(c(C)c3C)OC(C)(C)C4)CC2)cc1: 180 to 182 °C

// moving on: another record for melting point
Requested field: melting point. Item: Cc1[nH]cnc1CC1CCc2c(C)c3cc(Cl)ccc3n2C1=O (stereo not given)
244 to 246 °C

----------
property label: melting point

CCCCc1nc2ccccc2n1Cc1ccc(C(=O)O)cc1F: 224 to 226 °C

melting point lookup needed for COCC(C)n1nc(-c2cnc(N)nc2-c2ccccc2)ccc1=O (stereo not given) , thanks.
180 to 181 °C

Sample Cn1ncc2c(=O)n3ccsc3nc21 — what was its melting point?
220 to 221 °C

Consider the molecule shown here: Cn1ccnc1Sc1ccc(Nc2c(C#N)cnc3cc(-c4ccc(N5CCSCC5)nc4)ccc23)cc1Cl What is its recorded melting point?
> 260 °C

Item CN(Cc1ccc(NC(=O)C2=Cc3cc(-c4ccc(C(F)(F)F)cc4)ccc3OCC2)cc1)C1CCOCC1 has what recorded melting point?
205 to 209 °C

----------
Parameter melting point: see the listing below.

Reference set, count: 3
CN(C)c1c(O)ccc2c1CCC1C2CCC2(C)C(=O)CCC12 (stereo unspecified): 155 to 156 °C
CN(C)S(=O)(=O)N[Si](C)(C)C: 83 to 86 °C
CC(C)CCCC(C)C1CCC2C3CC=C4CC(OCCCCCCN5C(=O)c6ccccc6C5=O)CCC4(C)C3CCC12C (stereo unspecified): 80 °C

Consider the compound shown here: Oc1c2ncnc(S)c2nn1-c1ccccc1 What is its recorded melting point?
> 300 °C

Item under review: COc1cc(O)c2c(=O)c(OC)c(-c3ccc(OC(C)=O)c(OC)c3)oc2c1 . Reported melting point?
168 to 169 °C

I am curious: what melting point value has been reported for c1csc(-c2nc3ccccc3nc2OC2CCC2)c1 ?
103 °C

Query: melting point; subject: CN1CCN(c2ccc(Nc3ncc4cc(C#N)c(=O)n(C5CCCC5)c4n3)cc2)CC1
290 to 292 °C

Consider the compound O=C(NS(=O)(=O)C(F)(F)F)c1cccc([N+](=O)[O-])c1 and give its measured melting point.
80 to 83 °C

Reported melting point for CC(C)(C)c1ccc(C(=O)Nc2cn3nc(-n4cnc(CO)c4)ccc3n2)cc1 : what is it?
298 to 301 °C

# input compound: CCOC(=O)CC(=O)NNc1ncc(-c2ccccc2)nc1CC(C)C ; wanted: its melting point
116 to 118 °C

melting point lookup needed for COC1([N+](=O)[O-])C=C([N+](=O)[O-])C=CC1O (stereo unspecified) , thanks.
68 to 70 °C

What measured melting point goes with CC(C)(C)c1csc(NC(=O)c2ccn3c(=O)c(/C=C/C(=O)O)c(N4CCC(O)CC4)nc3c2)n1 ?
215 to 218 °C

What value of melting point has been recorded for this entry: CC(C)(C)c1ccc(CCOc2ncnc3ncccc23)cc1
77 to 79 °C

Param item = Cc1cc(-c2coc3c(C(C)(C)C)cc(C)cc23)c(O)c(C(C)(C)C)c1 ; retrieve measured melting point.
132 to 134 °C

Endpoint output: melting point of COC(=O)CCC(=O)c1ccc2c(c1)CC(CCNC(C)=O)C2 (stereo unspecified) . Value?
96 to 97 °C

For the compound shown here, CC(=O)N1c2ccccc2-c2c(N)cnn2C1C (stereo unspecified) , give the reported melting point.
170 to 172 °C

What does the data say about its melting point? Entry: N#Cc1cccc2c1NC(=O)C2c1ncnc2nn(C3CCCC3)cc12 (stereo unspecified)
> 380 °C

What value of melting point has been recorded for this entry: O=C1OC(c2ccccc2)=NC1Cc1ccccc1 (racemic)
70 to 72 °C

I am curious: what melting point value has been reported for CS(=O)(=O)c1ccc(-c2cc(C(N)=O)nn2-c2ccc(C(=O)O)cc2)cc1 ?
292 to 293 °C

Fill blank: measured melting point of the compound O=C(Cl)CCCC(=O)Cl is ____.
60.6 to 61.4 °C

Report melting point for FC(F)(F)c1cc(Nc2nc3ccccc3o2)cc(C(F)(F)F)c1 please.
178 to 180 °C

----------
property label: melting point

Use these answered entries as a reference point.
NC(=O)C1c2ccccc2SN1CCN1CCN(c2nsc3ccccc23)CC1 (stereo not given): 160 to 163 °C
CCCCCCCCCCCCOc1cc(C#N)c(C#N)cc1OCCOCCOCCOC: 38 to 40 °C

// returns reported melting point for input CCOC(=O)c1sc(CC)nc1C(F)(F)F
30 to 32 °C

# lookup: melting point of Nc1cc(Oc2ccc(NC(=O)Nc3ccc(-c4cccnc4)c(C(F)(F)F)c3)cc2)ncn1
132 to 135 °C

Tell me the measured melting point of CC(C)(C)c1ccc(-c2nc3ccc([N+](=O)[O-])cc3c(=O)o2)cc1 , please.
159 to 161 °C

----------
Reported melting point is given for each of the following compounds.

NC(=O)c1c(Cl)c(-c2ccccc2)n2c1CN(S(=O)(=O)Nc1ccccc1)CC2: 207 to 208 °C
CCCc1c(C(=O)N2CCOCC2)c2ccc(C(N)=O)cc2n1Cc1ccccc1Cl: 229 to 230 °C
O=C(O)c1ccc2c(c1)C(=O)CC(c1ccccc1)=N2: > 300 °C

What does the data say about its melting point? Entry: CCCCOc1cc(C)c(O)cc1C
43 to 45 °C

Param item = N#CCc1ccc(CN2CCN(c3ccc(F)cc3)CC2)cc1 ; retrieve measured melting point.
111 to 113 °C

Name the reported melting point value associated with the compound CCOC(=O)C(C)(C)c1ccc(N[C@@H](CCC(N)=O)C(=O)O)cc1
147 to 148 °C

Would you mind telling me what melting point value was observed for FC(F)(F)c1cccc(Nc2ccccc2-c2n[nH]c(=S)[nH]2)c1 ?
275 to 279 °C

// returns reported melting point for input NC(=O)[C@@H]1[C@H](Nc2ccnc3[nH]c(-c4cccc(CN5CCOCC5)c4)nc23)[C@H]2C=C[C@@H]1C2
240 to 244 °C

Param item = COc1ccc(C2=CCN(Cc3n[nH]c4c(F)cccc34)CC2)cc1 ; retrieve measured melting point.
183 to 185 °C

// lookup melting point for Cc1c(CC(=O)NS(=O)(=O)c2ccccc2)c2cc(OCc3ccc4ccccc4n3)ccc2n1Cc1ccc(Cl)cc1
194 to 197 °C

// query melting point value for entry Cc1ccc(C(C(=O)C(C)C)c2ccc(C)cc2)cc1
48 to 51 °C

Fill in the blank: the reported melting point of CC(C)c1nc(CN(C)C(=O)N[C@H](C(=O)O)C(C)C)cs1 is ____.
82.8 to 93.8 °C

Give the measured melting point of Cc1cc(NC(=O)C(C)(O)COc2cccc(Cl)c2)ccc1[N+](=O)[O-] (stereo not given) .
104 to 107 °C

Please look up its melting point: CC(C)CN1C(=O)[C@@H](CCCl)O[C@H](c2ccccc2Cl)c2cc(Cl)ccc21 (relative stereo)
138 to 140 °C

Any idea what its melting point is? The compound is CN(C(=O)c1ccc2nonc2c1)C1CCCCCC1
80 to 81 °C

melting point for FC(F)(F)c1cccc(-c2cc(CCl)on2)c1 ?
33 to 37 °C

Param item = O=C(NCc1ccc(Cl)cc1)c1cnc2ccc(CO)cc2c1O ; retrieve measured melting point.
288 to 289 °C

----------
The entries below are paired with their reported melting point.

N#Cc1cnc2cc(/C=C/CCCN3CCOCC3)ccc2c1Nc1ccc(Cl)cc1Cl: 142 to 144 °C
CN(C)CC(=O)N1CCN2C(=O)N(c3cc(Cl)cc(Cl)c3)C(=O)C2(Cc2ccc(Br)cc2)C1 (stereo not given): 73.5 °C
COP(=O)(OC)C(C)NC(=O)C(C)NC(=O)C(C)NC(=O)CNC(C)(C)C (stereo not given): 148 to 152 °C
COc1cccc(-c2nc(-c3ccccn3)no2)c1: 96 to 99 °C

What melting point value was documented for this molecule, COC(=O)c1cnc(Cl)cc1NN ?
163 °C

melting point lookup needed for CC(=O)Oc1ccc(-c2c3ccccc3c(Br)c3sc4ccccc4c23)cc1OC(C)=O , thanks.
178 to 179 °C

Consider the molecule CN1CC=C(c2c[nH]c3ccc([N+](=O)[O-])cc23)C(F)C1 (stereo not given) and give its measured melting point.
94 to 96 °C

Endpoint output: melting point of O=C(Nc1ccncn1)Nc1cccc2c1C1CCCCN1C2=O (stereo not given) . Value?
218 °C

// melting point lookup, key: CC(C)OCCNS(=O)(=O)NC(=O)OCc1ccccc1
88 to 89 °C

What value of melting point has been recorded for this entry: NS(=O)(=O)c1cc(C2CO2)ccc1F (stereo not given)
100 to 103 °C
